Experiment: endothelial E-selectin expression blockers – imaging, HUVEC, immunofluorescence, MLSMR starter and 10KST1 sets, primary screen (AID 487);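 also: signal is fraction of cell area covered by stained E-selectin grains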
Settings: HUVEC TNFalpha-induced E-selectin immunofluorescence imaging, at 2 µM; active compounds read high
Please enter true where inhibition is greater than or equal to -40%, and false where it is lower.

Lookup: // inclusive: inhibition at least -40%? input: COc1ccc(-c2ccc(CCC(=O)O)n2NC(=O)c2cccs2)cc1
Found: true

Lookup: Also O=c1cc(C(F)F)oc2c1ccc1ccccc12 ?
Found: false

Lookup: One more compound: C#CC(CO)N(CCN(Cc1ccccc1)C(C#C)CO)Cc1ccccc1 (stereo unspecified)
Found: true

Lookup: Please give the result for COc1ccccc1NC(=O)N(Cc1ccco1)Cc1cc2c(C)ccc(C)c2[nH]c1=O too.
Found: true

Lookup: Try the compound O=C(NCCN1CCOCC1)c1ccc2c(c1)N(Cc1ccccc1F)C(=O)CS2
Found: false

Lookup: Similarly, COC(=O)c1ccccc1NC(=O)c1cnc2sccn2c1=O ?
Found: true

Lookup: Then what about the compound Cc1noc(/C=C/N(C)C)c1S(=O)(=O)N1CCCC(C(=O)N2CCCCC2)C1 (stereo unspecified) ?
Found: false

Lookup: Moving on to Cc1csc(NC(=O)CCS(=O)(=O)c2ccc(Br)cc2)n1
Found: true

Lookup: Please answer likewise for Nc1nc(CSc2nc3ccccc3[nH]2)nc(N2CCOCC2)n1
Found: false

Lookup: Proceed to CC(=O)c1cc2c(cc1NC(=O)CN1CCN(C(=O)c3ccco3)CC1)OCO2
Found: false

Cited source for all entries: PubChem BioAssay
